Origin of the recorded values: patent US10538497B2

IC50 for assorted compounds
TARGET SYSTEM: IDO1 (Homo sapiens (Human), UniProt P14902)
Sequence (P14902 whole entry): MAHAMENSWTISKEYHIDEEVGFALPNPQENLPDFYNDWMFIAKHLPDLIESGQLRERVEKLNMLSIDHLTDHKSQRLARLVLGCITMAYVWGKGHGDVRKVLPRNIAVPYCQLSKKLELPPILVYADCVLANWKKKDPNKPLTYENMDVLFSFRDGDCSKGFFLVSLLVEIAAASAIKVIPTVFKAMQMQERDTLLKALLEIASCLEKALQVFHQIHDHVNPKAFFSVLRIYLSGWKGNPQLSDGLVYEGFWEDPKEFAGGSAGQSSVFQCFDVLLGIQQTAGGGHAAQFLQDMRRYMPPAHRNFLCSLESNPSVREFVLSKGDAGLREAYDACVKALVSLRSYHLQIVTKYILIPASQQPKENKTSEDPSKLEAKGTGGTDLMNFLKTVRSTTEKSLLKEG
PROTOCOL SUMMARY: IDO1 Cellular Assay in Frozen HEK293 Cells Transiently Transfected with Human IDO1
Assay type: cell-based
CONDITION NOTES: HEK293 cells transiently transfected with human IDO1; read-out: IDO1 HEK293 Cell Assay, IC50

- COMPOUND: "CC(C)(O)C(O)CSc1nonc1/C(=N/O)Nc1ccc(F)c(Br)c1 (stereo not shown) [Example 30]"
  IC50 [nM]: 29.4
- COMPOUND: "O=C1CC[C@@H](CSc2nonc2/C(=N/O)Nc2ccc(F)c(Br)c2)N1"
  IC50 [nM]: 33.1
- COMPOUND: "Cc1cc(CSc2nonc2/C(=N/O)Nc2ccc(F)c(Br)c2)[nH]c(=O)c1"
  IC50 [nM]: 44.4
- COMPOUND: "CC(C)Nc1c(NCCSc2nonc2/C(=N/O)Nc2ccc(F)c(Br)c2)c(=O)c1=O"
  IC50 [nM]: 193
- COMPOUND: "CN1C(=O)NC[C@@H]1CSc1nonc1/C(=N/O)Nc1ccc(F)c(Br)c1"
  IC50 [nM]: 78.5
- COMPOUND: "CNC(=O)N1CCC(Sc2nonc2/C(=N/O)Nc2ccc(F)c(Br)c2)CC1"
  IC50 [nM]: 269
- COMPOUND: "CN1CCOC(CSc2nonc2/C(=N/O)Nc2ccc(F)c(Br)c2)C1 (stereo not shown)"
  IC50 [nM]: 101
- COMPOUND: "CC(C)OC(=O)OCOP(=O)(CCCSc1nonc1/C(=N/O)Nc1ccc(F)c(Br)c1)OCOC(=O)OC(C)C"
  IC50 [nM]: 2430
- COMPOUND: "N#CC1(CSc2nonc2/C(=N/O)Nc2ccc(F)c(Br)c2)CC1"
  IC50 [nM]: 107
- COMPOUND: "CC(=O)CSc1nonc1/C(=N/O)Nc1ccc(F)c(Br)c1"
  IC50 [nM]: 105
- COMPOUND: "CS(=O)(=O)NCCSc1nonc1/C(=N/O)Nc1ccc(F)c(C#N)c1"
  IC50 [nM]: 30.8
- COMPOUND: "CCCSc1nonc1/C(=N/O)Nc1ccc(F)c(Br)c1"
  IC50 [nM]: 263
- COMPOUND: "N#Cc1cc(N/C(=N\\O)c2nonc2SC[C@H]2CCC(=O)N2)ccc1F"
  IC50 [nM]: 209

---

TARGET SYSTEM: UniProt:P14902
PROTOCOL SUMMARY: IDO1 Enzyme Assay
CONDITION NOTES: read-out: IDO1 Enzyme Assay, IC50; HIS-tagged recombinant IDO1, 40 nM
Reported IC50 values for the following compounds.

- COMPOUND: "O=C(CSc1nonc1/C(=N/O)Nc1ccc(F)c(Br)c1)N[C@H]1C[C@@H](O)[C@@H](O)C1 [Example 177]"
  IC50 (nM): 97.3
- COMPOUND: "N#Cc1cc(N/C(=N\\O)c2nonc2SCCNC(=O)[C@H]2CC2(F)F)ccc1F [Example 187]"
  IC50 (nM): 86
- COMPOUND: "CN(C)P(=O)(CCSc1nonc1/C(=N/O)Nc1ccc(F)c(Br)c1)N(C)C [Example 139]"
  IC50 (nM): 117
- COMPOUND: "O=C(CSc1nonc1/C(=N/O)Nc1ccc(F)c(Br)c1)N1C[C@@H](O)[C@@H](O)C1 [Example 195]"
  IC50 (nM): 92.5
- COMPOUND: "N#CC12CC(CSc3nonc3/C(=N/O)Nc3ccc(F)c(Br)c3)(C1)C2 [Example 80]"
  IC50 (nM): 125
- COMPOUND: "OCCSc1nonc1/C(=N/O)Nc1ccc(F)c(C(F)(F)F)c1 [Example 50]"
  IC50 (nM): 99.5
- COMPOUND: "O=P(CCSc1nonc1/C(=N/O)Nc1ccc(F)c(Br)c1)(NCc1ccccc1)NCc1ccccc1 [Example 116]"
  IC50 (nM): 154
- COMPOUND: "CN1CCOC(CSc2nonc2/C(=N/O)Nc2ccc(F)c(Br)c2)C1 (centres unmarked) [Example 78]"
  IC50 (nM): 90.9
- COMPOUND: "OC[C@H](O)CSc1nonc1/C(=N/O)Nc1ccc(F)c(C(F)F)c1 [Example 167]"
  IC50 (nM): 142
- COMPOUND: "CC(O)C(CO)NC(=O)CSc1nonc1/C(=N/O)Nc1ccc(F)c(Br)c1 (centres unmarked) [Example 176]"
  IC50 (nM): 116
- COMPOUND: "CN1CCN(CCSc2nonc2C(=NO)Nc2ccc(F)c(Br)c2)CC1 [Example 164]"
  IC50 (nM): 62.2

---

TARGET SYSTEM: IDO1 (Homo sapiens (Human))
PROTOCOL SUMMARY: IDO1 Cellular Assay in Frozen HEK293 Cells Transiently Transfected with Human IDO1
Type: cell-based
CONDITION NOTES: HEK293 cells transiently transfected with human IDO1; read-out: IDO1 HEK293 Cell Assay, IC50
// IC50 lookup, one value per entry
PARAMETER MEASURED: IC50 (nM)

- COMPOUND: "N=C(N)NCCSc1nonc1/C(=N/O)Nc1ccc(F)c(Br)c1 [Example 56]"
  VALUE UNIT: "nM"
  NUMERIC VALUE: 212
- COMPOUND: "O=C(CSc1nonc1C(=NO)Nc1ccc(F)c(Br)c1)NCCO [Example 112]"
  VALUE UNIT: "nM"
  NUMERIC VALUE: 40
- COMPOUND: "O/N=C(\\Nc1ccc(F)c(Br)c1)c1nonc1SCC(O)c1ccccc1 (stereo not shown) [Example 74]"
  VALUE UNIT: "nM"
  NUMERIC VALUE: 579
- COMPOUND: "CC(C)(O)C(O)CSc1nonc1/C(=N/O)Nc1ccc(F)c(Cl)c1 (single isomer, unassigned) [Example 189]"
  VALUE UNIT: "nM"
  NUMERIC VALUE: 39.9
- COMPOUND: "CCNc1c(NCCSc2nonc2/C(=N/O)Nc2ccc(F)c(Br)c2)c(=O)c1=O [Example 55]"
  VALUE UNIT: "nM"
  NUMERIC VALUE: 261
- COMPOUND: "CCOC(=O)NC(=O)NCCSc1nonc1C(=NO)Nc1ccc(F)c(Br)c1 [Example 128]"
  VALUE UNIT: "nM"
  NUMERIC VALUE: 149
- COMPOUND: "O=c1[nH]nc(CSc2nonc2/C(=N/O)Nc2ccc(F)c(Br)c2)[nH]1 [Example 34]"
  VALUE UNIT: "nM"
  NUMERIC VALUE: 188
- COMPOUND: "OCCSc1nonc1/C(=N/O)Nc1ccc(F)c(C(F)(F)F)c1 [Example 50]"
  VALUE UNIT: "nM"
  NUMERIC VALUE: 67.5
- COMPOUND: "O/N=C(\\Nc1ccc(F)c(Br)c1)c1nonc1SC1CNC1 [Example 26]"
  VALUE UNIT: "nM"
  NUMERIC VALUE: 174
- COMPOUND: "O=c1c(NCCSc2nonc2/C(=N/O)Nc2ccc(F)c(Br)c2)c(N2CCOCC2)c1=O [Example 91]"
  VALUE UNIT: "nM"
  NUMERIC VALUE: 367
- COMPOUND: "COCCNP(=O)(CCSc1nonc1/C(=N/O)Nc1ccc(F)c(Br)c1)NCCOC [Example 100]"
  VALUE UNIT: "nM"
  NUMERIC VALUE: 582
- COMPOUND: "CN1C[C@@H](CSc2nonc2/C(=N/O)Nc2ccc(F)c(Br)c2)NC1=O [Example 122]"
  VALUE UNIT: "nM"
  NUMERIC VALUE: 23.3
- COMPOUND: "O=c1cccc(CSc2nonc2/C(=N/O)Nc2ccc(F)c(Br)c2)[nH]1 [Example 86]"
  VALUE UNIT: "nM"
  NUMERIC VALUE: 41.6
- COMPOUND: "N/C(=C\\[N+](=O)[O-])NCCSc1nonc1C(=NO)Nc1ccc(F)c(Br)c1 [Example 99]"
  VALUE UNIT: "nM"
  NUMERIC VALUE: 231
- COMPOUND: "O/N=C(\\Nc1ccc(F)c(Br)c1)c1nonc1SC1CCNC1 (stereo not shown) [Example 66]"
  VALUE UNIT: "nM"
  NUMERIC VALUE: 67.7
- COMPOUND: "O=C1NCC(CSc2nonc2/C(=N/O)Nc2ccc(F)c(Br)c2)O1 (stereo not shown) [Example 124]"
  VALUE UNIT: "nM"
  NUMERIC VALUE: 65.6

---

TARGET SYSTEM: IDO1 (Homo sapiens (Human), UniProt P14902)
PROTOCOL SUMMARY: IDO1 Cellular Assay in Hela Cells Stimulated with IFNγ
Format: cell-based
CONDITION NOTES: Hela cells stimulated with IFNγ 100 ng/mL; read-out: IDO1 HELA Cell Assay, IC50
Rule: IC50 below 0.07 µM gives Fulfilled, anything at or above gives Not fulfilled.

- MOLECULE: "CC(C)Nc1c(NCCSc2nonc2/C(=N/O)Nc2ccc(F)c(Br)c2)c(=O)c1=O"
  TARGET SYSTEM: "IDO1 (Homo sapiens (Human), UniProt P14902)"
  CLASS ASSIGNMENT: "Not fulfilled"
- MOLECULE: "O=C(COc1nonc1/C(=N/O)Nc1ccc(F)c(Br)c1)NCCO"
  TARGET SYSTEM: "IDO1 (Homo sapiens (Human), UniProt P14902)"
  CLASS ASSIGNMENT: "Not fulfilled"
- MOLECULE: "C[C@@H](O)[C@@H](CO)NC(=O)CSc1nonc1/C(=N/O)Nc1ccc(F)c(Br)c1"
  TARGET SYSTEM: "IDO1 (Homo sapiens (Human), UniProt P14902)"
  CLASS ASSIGNMENT: "Fulfilled"
- MOLECULE: "N#Cc1cc(N/C(=N\\O)c2nonc2SCC(=O)NC2COC2)ccc1F"
  TARGET SYSTEM: "IDO1 (Homo sapiens (Human), UniProt P14902)"
  CLASS ASSIGNMENT: "Not fulfilled"
- MOLECULE: "OCCCCCCSc1nonc1/C(=N/O)Nc1ccc(F)c(Br)c1"
  TARGET SYSTEM: "IDO1 (Homo sapiens (Human), UniProt P14902)"
  CLASS ASSIGNMENT: "Not fulfilled"
- MOLECULE: "O=C(CSc1nonc1/C(=N/O)Nc1ccc(F)c(Br)c1)NCC(O)CN1CCOCC1 (single isomer, unassigned) [Example 207]"
  TARGET SYSTEM: "IDO1 (Homo sapiens (Human), UniProt P14902)"
  CLASS ASSIGNMENT: "Not fulfilled"
- MOLECULE: "O=C(CSc1nonc1C(=NO)Nc1ccc(F)c(Br)c1)NCCO"
  TARGET SYSTEM: "IDO1 (Homo sapiens (Human), UniProt P14902)"
  CLASS ASSIGNMENT: "Fulfilled"
- MOLECULE: "O/N=C(\\Nc1ccc(F)c(Br)c1)c1nonc1SCc1nnc[nH]1"
  TARGET SYSTEM: "IDO1 (Homo sapiens (Human), UniProt P14902)"
  CLASS ASSIGNMENT: "Fulfilled"
- MOLECULE: "CN1C[C@@H](CSc2nonc2/C(=N/O)Nc2ccc(F)c(Br)c2)NC1=O"
  TARGET SYSTEM: "IDO1 (Homo sapiens (Human), UniProt P14902)"
  CLASS ASSIGNMENT: "Fulfilled"
- MOLECULE: "N/C(=C\\[N+](=O)[O-])NCCSc1nonc1C(=NO)Nc1ccc(F)c(Br)c1"
  TARGET SYSTEM: "IDO1 (Homo sapiens (Human), UniProt P14902)"
  CLASS ASSIGNMENT: "Not fulfilled"
- MOLECULE: "N#CC1(CSc2nonc2/C(=N/O)Nc2ccc(F)c(Br)c2)CC1"
  TARGET SYSTEM: "IDO1 (Homo sapiens (Human), UniProt P14902)"
  CLASS ASSIGNMENT: "Not fulfilled"
- MOLECULE: "CC(=O)CSc1nonc1/C(=N/O)Nc1ccc(F)c(Br)c1"
  TARGET SYSTEM: "IDO1 (Homo sapiens (Human), UniProt P14902)"
  CLASS ASSIGNMENT: "Not fulfilled"
- MOLECULE: "OCC(O)CSc1nonc1/C(=N/O)Nc1ccc(F)c(Br)c1 (single isomer, unassigned) [Example 64]"
  TARGET SYSTEM: "IDO1 (Homo sapiens (Human), UniProt P14902)"
  CLASS ASSIGNMENT: "Fulfilled"
- MOLECULE: "C[C@@H](CO)NC(=O)CSc1nonc1/C(=N/O)Nc1ccc(F)c(Br)c1"
  TARGET SYSTEM: "IDO1 (Homo sapiens (Human), UniProt P14902)"
  CLASS ASSIGNMENT: "Fulfilled"
- MOLECULE: "COCCNC(=O)NCCSc1nonc1C(=NO)Nc1ccc(F)c(Br)c1"
  TARGET SYSTEM: "IDO1 (Homo sapiens (Human), UniProt P14902)"
  CLASS ASSIGNMENT: "Fulfilled"
- MOLECULE: "CC(=O)NCCSc1nonc1/C(=N/O)Nc1ccc(F)c(OC(F)(F)F)c1"
  TARGET SYSTEM: "IDO1 (Homo sapiens (Human), UniProt P14902)"
  CLASS ASSIGNMENT: "Not fulfilled"
